Counter-ions that a name gives are not always drawn.
reported metric: melting point

compound=CCS(=O)(=O)Nc1cccc(Cc2c[nH]cn2)c1OC observed="185 to 186 °C"

Task item: Bench note: what melting point did `CS(=O)(=O)Nc1cc(Cc2c[nH]cn2)ccc1O.Cl` show?
Reply: 167 to 169 °C

Task item: Bench note: what melting point did Cl.Cn1cnc(C2CCCc3c(NS(C)(=O)=O)cccc32)c1 (stereo not drawn) show?
Reply: 130 to 135 °C

Task item: Bench note: what melting point did `CCS(=O)(=O)Nc1cc(Cc2c[nH]cn2)ccc1F` show?
Reply: 122 to 123 °C

Task item: Bench note: what melting point did CCS(=O)(=O)Nc1cccc2c1OCCC2c1c[nH]cn1 (single isomer, unassigned; (+)) show?
Reply: 223 to 226 °C

Task item: Bench note: what melting point did O=S(=O)(CC(F)(F)F)Nc1cccc2c1OCCC2c1c[nH]cn1 (single isomer, unassigned) (as salt: maleic acid salt) show?
Reply: 173 to 176 °C

Task item: Bench note: what melting point did CS(=O)(=O)Nc1cccc2c1CCC2c1c[nH]cn1.O=C(O)/C=C\C(=O)O (stereo not drawn) show?
Reply: 168 to 169 °C

Task item: Bench note: what melting point did `CCS(=O)(=O)Nc1cccc(/C(=C/OC)c2c[nH]cn2)c1.O=C(O)/C=C\C(=O)O` show?
Reply: 146 to 148 °C

Task item: Bench note: what melting point did CCS(=O)(=O)Nc1cccc2c1CCC2c1c[nH]cn1.O=C(O)/C=C\C(=O)O (stereo not drawn) show?
Reply: 148 to 149 °C

---

# Ki per entry for α1A (rat submaxillary gland) (Rattus norvegicus, UniProt P43140)
Give the value in nM but do not write nM after it.

compound="CCS(=O)(=O)Nc1cc(C2CCCCC2)cc2c1CCCC2c1c[nH]cn1 (stereo not drawn)" unit_abbreviation=nM observed=269
compound="CCS(=O)(=O)Nc1cc(Cl)cc2c1CCCC2c1c[nH]cn1 (stereo not drawn)" unit_abbreviation=nM observed=47
compound="CC(C)[C@H]1CC[C@H](C)C[C@@H]1OC(=O)Nc1cccc2c1CCCC2c1c[nH]cn1 (stereo partly drawn)" unit_abbreviation=nM observed=1280

Task item: Checklist item: Ki tested on α1A (rat submaxillary gland) (Rattus norvegicus, UniProt P43140), entry CCS(=O)(=O)Nc1cccc2c1SCCC2c1c[nH]cn1.O=C(O)/C=C\C(=O)O (stereo not drawn) [Example 89, Maleate] , value?
Reply: 1010

Task item: Checklist item: Ki tested on α1A (rat submaxillary gland) (Rattus norvegicus, UniProt P43140), entry `CCS(=O)(=O)Nc1cccc(C(=C(C)C)c2c[nH]cn2)c1` , value?
Reply: 1940

Task item: Checklist item: Ki tested on α1A (rat submaxillary gland) (Rattus norvegicus, UniProt P43140), entry C=C(c1cccc(NS(=O)(=O)CC(F)(F)F)c1)c1c[nH]cn1.O=C(O)/C=C\C(=O)O [Example 91, Maleate] , value?
Reply: 1520

Task item: Checklist item: Ki tested on α1A (rat submaxillary gland) (Rattus norvegicus, UniProt P43140), entry Cc1ccc(OC(=O)Nc2cccc3c2CCCC3c2c[nH]cn2)cc1 (stereo not drawn) , value?
Reply: 451

Task item: Checklist item: Ki tested on α1A (rat submaxillary gland) (Rattus norvegicus, UniProt P43140), entry CCS(=O)(=O)Nc1cc(F)cc2c1OCCC2c1c[nH]cn1.O=C(O)/C=C\C(=O)O (stereo not drawn) [Example 80, Maleate] , value?
Reply: 378

Task item: Checklist item: Ki tested on α1A (rat submaxillary gland) (Rattus norvegicus, UniProt P43140), entry O=S(=O)(C=Cc1ccccc1)Nc1cccc2c1CCCC2c1cnc[nH]1 (stereo not drawn) , value?
Reply: 430
